These data points were gathered from patent US20230303690A1.

biological target: human LAG3 expressed on cells (human) (UniProt P18627); assay: cell-based or functional assay
Sequence (P18627 23-525): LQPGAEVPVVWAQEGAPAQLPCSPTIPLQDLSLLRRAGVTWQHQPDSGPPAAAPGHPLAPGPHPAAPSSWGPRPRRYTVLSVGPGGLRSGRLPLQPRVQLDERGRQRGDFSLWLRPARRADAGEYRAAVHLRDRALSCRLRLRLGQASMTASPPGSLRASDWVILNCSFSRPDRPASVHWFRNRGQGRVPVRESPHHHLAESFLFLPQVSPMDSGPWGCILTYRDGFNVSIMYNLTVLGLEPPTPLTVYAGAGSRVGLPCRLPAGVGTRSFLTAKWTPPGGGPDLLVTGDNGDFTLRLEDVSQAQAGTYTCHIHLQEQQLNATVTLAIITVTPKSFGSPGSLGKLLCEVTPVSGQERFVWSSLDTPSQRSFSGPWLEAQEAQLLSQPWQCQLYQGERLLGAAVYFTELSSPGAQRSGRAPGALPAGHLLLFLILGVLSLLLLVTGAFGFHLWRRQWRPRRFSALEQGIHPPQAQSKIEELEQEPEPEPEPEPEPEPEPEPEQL
metric_name: IL-2, % of BMS, at 0.24691358 ug/mL (%)

INSERT INTO results (binder, metric_name, units_text, experimental_value) VALUES
  ('sdAb fusion 25-17-1 (Fc fusion, not shown: a dimerising Fc or GST) QLQLVESGGGLVQAGGSLRLSCAASGSIESFSFMGWYRQAPGKQRELVAGFTGAASLSFSTYTDAVKGRFTISRDNAKNTVYLQMNSLKPEDTAVYFCNVDPWSQSWPGRYWGQGTQVTVSSGGGGSQLQLVESGGGLVQPGGSLRLSCAASGLTLDGYAIGWFRQAPGKEREGLACISGSDGSTHYLDSVKGRFTISRDNGKNTMALQMNSLQFGDTAIYYCAARRGSCSGSWTYWGQGTQVTVSS', 'IL-2, % of BMS, at 0.24691358 ug/mL', '%', 6.88),
  ('sdAb fusion 25-2015-1 (Fc fusion, not shown: a dimerising Fc or GST) QLQLVESGGGLVQAGGSLRLSCAASGSIESFSFMGWYRQAPGKQRELVAGFTGAASLSFSTYTDAVKGRFTISRDNAKNTVYLQMNSLKPEDTAVYFCNVDPWSQSWPGRYWGQGTQVTVSSGGGGSQLQLVESGGGLAQTGGSLRLSCAAAGFTFDDTATGWFRQAPGKNREGVACISSSDGRIHYIDSAKGRFTISKDNAKKTVYLQMDSLKPEDTAVYYCAAARKGSTDCQGAIWGSWGQGTQVIVSSEPKSCDKTHTCPPCPAPELLG', 'IL-2, % of BMS, at 0.24691358 ug/mL', '%', 35.6),
  ('sdAb fusion 25-2015-3 (Fc fusion, not shown: a dimerising Fc or GST) QLQLVESGGGLVQAGGSLRLSCAASGSIESFSFMGWYRQAPGKQRELVAGFTGAASLSFSTYTDAVKGRFTISRDNAKNTVYLQMNSLKPEDTAVYFCNVDPWSQSWPGRYWGQGTQVTVSSGGGGSGGGGSGGGGSQLQLVESGGGLAQTGGSLRLSCAAAGFTFDDTATGWFRQAPGKNREGVACISSSDGRIHYIDSAKGRFTISKDNAKKTVYLQMDSLKPEDTAVYYCAAARKGSTDCQGAIWGSWGQGTQVIVSSEPKSCDKTHTCPPCPAPELLG', 'IL-2, % of BMS, at 0.24691358 ug/mL', '%', 35.4),
  ('sdAb fusion 25-17-2 (Fc fusion, not shown: a dimerising Fc or GST) QLQLVESGGGLVQAGGSLRLSCAASGSIESFSFMGWYRQAPGKQRELVAGFTGAASLSFSTYTDAVKGRFTISRDNAKNTVYLQMNSLKPEDTAVYFCNVDPWSQSWPGRYWGQGTQVTVSSGGGGSGGGGSQLQLVESGGGLVQPGGSLRLSCAASGLTLDGYAIGWFRQAPGKEREGLACISGSDGSTHYLDSVKGRFTISRDNGKNTMALQMNSLQFGDTAIYYCAARRGSCSGSWTYWGQGTQVTVSSEPKSCDKTHTCPPCPAPELLG', 'IL-2, % of BMS, at 0.24691358 ug/mL', '%', -2.21);
